meta.source: patent US10246426B2

Molecular target: Cav3.2 (Homo sapiens)
Sequence (O95180 whole entry, looked up): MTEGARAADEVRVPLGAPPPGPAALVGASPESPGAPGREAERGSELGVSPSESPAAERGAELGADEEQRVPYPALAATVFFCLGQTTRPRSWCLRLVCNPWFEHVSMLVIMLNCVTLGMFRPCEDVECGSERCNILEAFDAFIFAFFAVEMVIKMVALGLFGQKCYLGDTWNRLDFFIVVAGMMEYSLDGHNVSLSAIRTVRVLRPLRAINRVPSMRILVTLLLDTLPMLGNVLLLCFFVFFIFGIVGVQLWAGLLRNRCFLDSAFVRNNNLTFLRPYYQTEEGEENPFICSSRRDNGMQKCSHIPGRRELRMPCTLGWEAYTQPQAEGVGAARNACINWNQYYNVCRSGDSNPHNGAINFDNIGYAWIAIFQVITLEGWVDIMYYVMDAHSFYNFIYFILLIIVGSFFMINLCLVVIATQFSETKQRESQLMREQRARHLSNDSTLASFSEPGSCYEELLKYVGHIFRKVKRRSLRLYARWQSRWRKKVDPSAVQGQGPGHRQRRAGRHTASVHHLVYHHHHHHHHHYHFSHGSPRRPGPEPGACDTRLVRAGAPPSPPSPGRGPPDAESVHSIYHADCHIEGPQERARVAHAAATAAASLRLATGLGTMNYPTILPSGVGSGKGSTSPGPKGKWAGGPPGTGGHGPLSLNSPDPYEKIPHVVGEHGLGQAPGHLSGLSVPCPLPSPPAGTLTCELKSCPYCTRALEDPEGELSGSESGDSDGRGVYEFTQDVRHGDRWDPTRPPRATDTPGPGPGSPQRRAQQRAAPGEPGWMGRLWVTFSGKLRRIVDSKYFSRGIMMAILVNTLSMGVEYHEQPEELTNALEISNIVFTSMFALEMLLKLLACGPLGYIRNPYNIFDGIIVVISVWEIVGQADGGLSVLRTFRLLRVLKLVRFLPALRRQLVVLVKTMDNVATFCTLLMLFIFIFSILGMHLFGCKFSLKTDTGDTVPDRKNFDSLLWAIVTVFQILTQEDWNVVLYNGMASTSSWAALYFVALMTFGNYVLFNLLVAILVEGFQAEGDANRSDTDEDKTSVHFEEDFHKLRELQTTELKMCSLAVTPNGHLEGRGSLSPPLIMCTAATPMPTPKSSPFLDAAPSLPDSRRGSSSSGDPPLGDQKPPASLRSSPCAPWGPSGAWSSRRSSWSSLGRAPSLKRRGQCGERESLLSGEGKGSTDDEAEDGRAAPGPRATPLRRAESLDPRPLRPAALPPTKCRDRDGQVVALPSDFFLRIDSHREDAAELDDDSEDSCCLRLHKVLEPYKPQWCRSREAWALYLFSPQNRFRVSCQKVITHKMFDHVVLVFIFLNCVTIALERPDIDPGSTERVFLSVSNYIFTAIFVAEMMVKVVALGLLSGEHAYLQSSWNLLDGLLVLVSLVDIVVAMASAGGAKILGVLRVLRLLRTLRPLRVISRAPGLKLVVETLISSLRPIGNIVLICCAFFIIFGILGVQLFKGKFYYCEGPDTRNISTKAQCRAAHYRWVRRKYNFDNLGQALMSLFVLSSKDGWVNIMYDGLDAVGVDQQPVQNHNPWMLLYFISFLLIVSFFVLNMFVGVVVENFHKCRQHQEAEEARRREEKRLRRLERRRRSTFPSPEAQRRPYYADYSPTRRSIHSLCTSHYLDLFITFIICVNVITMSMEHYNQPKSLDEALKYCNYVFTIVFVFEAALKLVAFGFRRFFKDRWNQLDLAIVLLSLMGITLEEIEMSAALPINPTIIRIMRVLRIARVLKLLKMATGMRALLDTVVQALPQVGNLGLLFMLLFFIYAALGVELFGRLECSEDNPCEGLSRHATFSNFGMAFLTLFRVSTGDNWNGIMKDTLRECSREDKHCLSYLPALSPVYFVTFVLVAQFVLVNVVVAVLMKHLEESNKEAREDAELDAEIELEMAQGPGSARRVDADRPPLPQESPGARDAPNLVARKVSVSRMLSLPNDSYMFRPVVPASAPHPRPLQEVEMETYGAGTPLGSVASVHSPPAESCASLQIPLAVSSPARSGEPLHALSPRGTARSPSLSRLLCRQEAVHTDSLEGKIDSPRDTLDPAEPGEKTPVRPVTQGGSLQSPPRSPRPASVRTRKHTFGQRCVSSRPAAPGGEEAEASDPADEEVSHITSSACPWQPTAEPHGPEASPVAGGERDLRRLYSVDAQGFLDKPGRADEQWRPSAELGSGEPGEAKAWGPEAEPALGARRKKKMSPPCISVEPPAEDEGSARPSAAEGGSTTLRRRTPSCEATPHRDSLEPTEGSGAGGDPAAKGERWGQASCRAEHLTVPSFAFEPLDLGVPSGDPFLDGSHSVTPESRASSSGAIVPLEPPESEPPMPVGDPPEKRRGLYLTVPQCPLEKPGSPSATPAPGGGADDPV
Test: Calcium flux FLIPR assay, HEK293 cells recombinantly expressing Cav3.2
Assay type: cell-based
Conditions: Cav3.2-channel, Ca2+ entry stimulated by 10 mM CaCl2
assay-metric: IC50 (nM)
Entry rule: numbers only, all in nM.

A selection of reference data follows.
The compound listed as COc1cc(Cn2ncc(NC(=O)Cc3ccc(OC4CC(F)(F)C4)cc3)n2)cc(F)c1F [Example 230] shows IC50 equal to 350

The compound listed as COc1cc(Cn2ncc(NC(=O)Cc3ccc4c(c3)c(C)cn4C)n2)cc(F)c1F [Example 240] shows IC50 equal to 180

New cases:
The compound listed as Cn1nc(C2CC2)c2cc(CC(=O)Nc3cnn(Cc4ccc(F)c(F)c4)n3)ccc21 [Example 35] shows IC50 equal to 29

----------
Molecular target: Cav3.2 (Homo sapiens)
Test: Calcium flux FLIPR assay, HEK293 cells recombinantly expressing Cav3.2
Assay type: cell-based
Details: Cav3.2-channel, Ca2+ entry stimulated by 10 mM CaCl2
assay-metric: pIC50
Value format note: pIC50 is -log10 of concentration (mol/L); just state the number.

A selection of reference data follows.
The compound listed as `COc1cc(Cn2ncc(NC(=O)Cc3ccc4c(cnn4C)c3)n2)ccc1F` shows pIC50 equal to 7.14

The compound listed as `COc1c(F)cc(Cn2ncc(NC(=O)Cc3ccc4c(ccn4C)c3)n2)cc1F` shows pIC50 equal to 7.89

The compound listed as `N#Cc1ccc(Cn2ncc(NC(=O)Cc3ccc(OC4CC(F)(F)C4)cc3)n2)nc1` shows pIC50 equal to 6.17

The compound listed as `CC1(c2ccc(CC(=O)Nc3cnn(Cc4ccc(F)cc4)n3)cc2)COC1` shows pIC50 equal to 7.46

New cases:
The compound listed as `Cc1nn(C)c2ccc(CC(=O)Nc3cnn(Cc4ccc(F)c(F)c4)n3)cc12` shows pIC50 equal to 7.66

The compound listed as `O=C(Cc1ccc2[nH]ccc2c1)Nc1cnn(Cc2ccc(F)c(F)c2)n1` shows pIC50 equal to 7.40
